Measured Solubility in water, listed per entry for reference.

Here are 2 compounds together with their reported answers.
>  <compound>
CC(C)(CO)C([O-])C(=O)[O-].C[C@@H](CN)CCN.[Pt+2] (stereo in doubt)

>  <reading>
> 100 mg/mL

$$$$
>  <compound>
CC(O)(CCO)CC(=O)[O-].CC(O)(CCO)CC(=O)[O-].N.N.[Pt+2] (centres unmarked)

>  <reading>
> 100 mg/mL

$$$$

Consider the compound CC(O)(CCO)CC(=O)[O-].CC(O)(CCO)CC(=O)[O-].NCC1(N)CCCCC1.[Pt+2] (centres unmarked) and give its measured Solubility in water.
> 100 mg/mL

Solubility in water lookup needed for CC(C)(CO)[C@@H](O)C(=O)[O-].CC(C)(CO)[C@@H](O)C(=O)[O-].NCC1(N)CCCCC1.[Pt+2] , thanks.
> 100 mg/mL

What does the data say about its Solubility in water? Entry: CC(C)(CO)C(=O)[O-].CC(C)(CO)C(=O)[O-].C[C@@H](CN)CCN.[Pt+2] (stereo in doubt)
> 20 mg/mL
